The reported measurements were obtained from PubChem BioAssay AID624416.

- Tested on: HIV-1 gp120 / PG9 antibody interaction
- Measurement protocol: binders of HIV-1 gp120 antibody PG9, primary screen, biochemical, TR-FRET (AID 624416)
- Cond: TR-FRET gp120-PG9 antibody binding; at 6.7 µM; active compounds read high
Out of some 360,000 compounds screened, about 1,500 (0.42%) were called active. The sample holds actives, similar compounds and a random draw of the others, so the mix is not that of the screen.
// reported inhibition for each item listed
A number alone suffices; assume %.

Illustrative cases are given below, each with its answer.
{"Molecule": "Cc1ccc(-n2ncc3c(=O)n(-c4ccc(C)c(C)c4)c(-c4ccco4)nc32)cc1", "Unit of measurement": "%", "inhibition": 9.24}
{"Molecule": "Cc1cc(C#N)c(SCC(N)=O)nc1-c1ccc(F)cc1", "Unit of measurement": "%", "inhibition": -0.54}
{"Molecule": "COC(=O)C1=C(C)N(Cc2cccc(C(F)(F)F)c2)C(=NCc2ccccc2)NC1c1ccc(Cl)cc1 (stereo not given)", "Unit of measurement": "%", "inhibition": -1.36}
{"Molecule": "Cc1ccc(-n2nc(-c3ccco3)cc2C(=O)NCc2cccnc2)cc1", "Unit of measurement": "%", "inhibition": 1.7}
{"Molecule": "Cc1ccc(-n2ncc3c2ncn2nc(-c4ccco4)nc32)c(C)c1", "Unit of measurement": "%", "inhibition": 1.54}
{"Molecule": "Cc1c(-c2ccccc2)nc(N)c(C#N)c1-c1cccs1", "Unit of measurement": "%", "inhibition": 12.2}
{"Molecule": "COc1ccc(CNS(=O)(=O)c2cc(Br)ccc2Br)cc1", "Unit of measurement": "%", "inhibition": 0.06}
{"Molecule": "CN1C(=O)C2CC(O)C(SC3CC4C(=O)N(C)C(=O)C4CC3O)CC2C1=O (stereo not given)", "Unit of measurement": "%", "inhibition": 0.46}

Returns the measured inhibition for the input molecule. Input: CCc1ccccc1OCC(=O)Nc1ccc2c(c1)OCCO2
-0.52

// lookup inhibition for CCOc1cccc(NC(=O)Cn2nc(-c3ccc4c(c3)OCCO4)ccc2=O)c1
9.11
